biological target: hAR (Homo sapiens, UniProt P10275); assay: Competitive binding of 3H-DHT to baculovirus/Sf9 generated hAR extracts; conditions: concentration at which one half of maximum binding of 1 nM 3H-DHT to hAR is inhibited; one hour at 4° C.; mean of multiple tests; read-out: IC50
Sequence (P10275 whole entry): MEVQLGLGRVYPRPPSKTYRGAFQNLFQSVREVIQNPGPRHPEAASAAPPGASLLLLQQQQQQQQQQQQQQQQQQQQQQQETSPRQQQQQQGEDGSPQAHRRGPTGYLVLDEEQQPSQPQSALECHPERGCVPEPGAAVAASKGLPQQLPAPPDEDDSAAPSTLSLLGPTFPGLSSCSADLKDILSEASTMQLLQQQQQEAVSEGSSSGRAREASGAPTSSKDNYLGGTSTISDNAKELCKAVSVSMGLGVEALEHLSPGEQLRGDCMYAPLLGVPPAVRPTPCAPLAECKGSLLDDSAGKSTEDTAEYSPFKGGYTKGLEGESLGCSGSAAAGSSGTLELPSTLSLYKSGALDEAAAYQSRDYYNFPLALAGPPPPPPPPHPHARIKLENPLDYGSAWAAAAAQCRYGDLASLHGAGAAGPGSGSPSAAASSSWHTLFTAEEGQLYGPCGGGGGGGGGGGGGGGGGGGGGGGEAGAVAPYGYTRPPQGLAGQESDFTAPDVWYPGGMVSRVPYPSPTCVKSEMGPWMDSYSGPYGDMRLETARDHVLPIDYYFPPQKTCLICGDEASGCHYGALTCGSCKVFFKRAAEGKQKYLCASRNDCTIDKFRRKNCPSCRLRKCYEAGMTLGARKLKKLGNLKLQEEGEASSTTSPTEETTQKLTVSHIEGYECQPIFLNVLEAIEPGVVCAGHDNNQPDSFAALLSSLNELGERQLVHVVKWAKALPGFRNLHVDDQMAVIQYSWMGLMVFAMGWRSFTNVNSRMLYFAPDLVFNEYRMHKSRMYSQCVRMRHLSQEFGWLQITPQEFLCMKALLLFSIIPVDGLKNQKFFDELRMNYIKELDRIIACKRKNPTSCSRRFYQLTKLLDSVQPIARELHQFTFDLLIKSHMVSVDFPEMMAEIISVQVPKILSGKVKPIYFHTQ
For each entry below, report its IC50 value.
Reply with just the number (in nM).

Recorded IC50 for COc1ccc(Cc2noc(CN3CC(C)(C)C(Oc4ccc(C#N)c(C(F)(F)F)c4)C3=O)n2)cc1 (stereo not shown) [Example 50] with hAR (Homo sapiens, UniProt P10275), please? 152

Then what about the molecule CC1(C)CN(Cc2nc(-c3cccc([N+](=O)[O-])c3)no2)C(=O)C1Oc1ccc(C#N)c(C(F)(F)F)c1 (stereo not shown) [Example 67] ? 437

Then what about the molecule CC1(C)CN(C(=O)c2cccs2)C(=O)C1Oc1ccc(C#N)c(C(F)(F)F)c1 (stereo not shown) [Example 108] ? 370

Then what about the molecule Cc1noc(C)c1C(=O)N1CC(C)(C)C(Oc2ccc(C#N)c(C(F)(F)F)c2)C1=O (stereo not shown) [Example 106] ? 342

Then what about the molecule COc1cc(OC2C(=O)N(S(C)(=O)=O)CC2(C)C)ccc1C#N (stereo not shown) [Example 100D] ? 555

Then what about the molecule COC(=O)c1ccc(CN2CC(C)(C)C(Oc3ccc(C#N)c(C(F)(F)F)c3)C2=O)o1 (stereo not shown) [Example 28] ? 310

Then what about the molecule Cc1ccc(Cc2noc(CN3CC(C)(C)C(Oc4ccc(C#N)c(C(F)(F)F)c4)C3=O)n2)cc1 (stereo not shown) [Example 43] ? 283

Then what about the molecule CC1(C)CN(Cc2cccc3nsnc23)C(=O)C1Oc1ccc(C#N)c(C(F)(F)F)c1 (stereo not shown) [Example 41] ? 107

Then what about the molecule CC1(C)CN(Cc2cccc(C(F)(F)F)c2)C(=O)C1Oc1ccc(C#N)c(C(F)(F)F)c1 (stereo not shown) [Example 34] ? 437

Then what about the molecule Cc1ccsc1S(=O)(=O)N1CC(C)(C)C(Oc2ccc(C#N)c(C(F)(F)F)c2)C1=O (stereo not shown) [Example 87] ? 115

Then what about the molecule CC1(C)CN(Cc2nnc(-c3ccccc3Cl)o2)C(=O)C1Oc1ccc(C#N)c(C(F)(F)F)c1 (stereo not shown) [Example 127] ? 198

Then what about the molecule CC1(C)CN(Cc2nnc(-c3cccc(O)c3)o2)C(=O)C1Oc1ccc(C#N)c(C(F)(F)F)c1 (stereo not shown) [Example 113] ? 224

Then what about the molecule COc1ccc(-c2nc(CN3CC(C)(C)C(Oc4ccc(C#N)c(C(F)(F)F)c4)C3=O)no2)cc1 (stereo not shown) [Example 66] ? 142

Then what about the molecule COc1ccccc1-c1nc(CN2CC(C)(C)C(Oc3ccc(C#N)c(C(F)(F)F)c3)C2=O)no1 (stereo not shown) [Example 51] ? 321

Then what about the molecule Cc1noc(C)c1S(=O)(=O)N1CC(C)(C)C(Oc2ccc(C#N)c(C(F)(F)F)c2)C1=O (stereo not shown) [Example 76] ? 430

Then what about the molecule Cc1cccc(-c2nnc(CN3CC(C)(C)C(Oc4ccc(C#N)c(C(F)(F)F)c4)C3=O)o2)c1 (stereo not shown) [Example 122] ? 271

---

target: hAR (Homo sapiens, UniProt P10275); assay: Competitive binding of 3H-DHT to baculovirus/Sf9 generated hAR extracts; details: IC50, concentration at which one half of maximum binding of 1 nM 3H-DHT to hAR is inhibited; one hour at 4° C.; mean of multiple tests
EXPERIMENTAL_READOUT: pIC50
Scale: negative log10 of molar concentration, which is what pIC50 denotes.

Reported pIC50, compound CC1(C)CN(Cc2nc(-c3ccc([N+](=O)[O-])cc3)cs2)C(=O)C1Oc1ccc(C#N)c(C(F)(F)F)c1 (centres unmarked) : ____ 7.42

Then what about the compound COC(=O)c1ccc(CN2CC(C)(C)C(Oc3ccc(C#N)c(C(F)(F)F)c3)C2=O)cc1 (centres unmarked) ? 7.33

Then what about the compound CC1(C)CN(S(=O)(=O)c2cccs2)C(=O)C1Oc1ccc(C#N)c(C(F)(F)F)c1 (centres unmarked) ? 7.09

Then what about the compound CC1(C)CN(Cc2nc3ccccc3s2)C(=O)C1Oc1ccc(C#N)c(C(F)(F)F)c1 (centres unmarked) ? 7.37

Then what about the compound CC1(C)CN(Cc2ccc3nsnc3c2)C(=O)C1Oc1ccc(C#N)c(C(F)(F)F)c1 (centres unmarked) ? 7.19

Then what about the compound CC1(C)CN(Cc2cc(O)cc(O)c2)C(=O)C1Oc1ccc(C#N)c(C(F)(F)F)c1 (centres unmarked) ? 7.35

Then what about the compound CC1(C)CN(S(C)(=O)=O)C(=O)C1Oc1ccc(C#N)c(C(F)(F)F)c1 (single isomer, unassigned) ? 7.92

Then what about the compound CCCS(=O)(=O)N1CC(C)(C)C(Oc2ccc(C#N)c(C(F)(F)F)c2)C1=O (centres unmarked) [Example 75] ? 7.19

---

biological target: UniProtKB P10275; test: Competitive binding of 3H-DHT to baculovirus/Sf9 generated hAR extracts; details: concentration at which one half of maximum binding of 1 nM 3H-DHT to hAR is inhibited; one hour at 4° C.; mean of multiple tests; read-out: IC50
For each entry below, report its pIC50 value.
Scale: negative log10 of molar concentration, which is what pIC50 denotes.

Reported pIC50, compound CC1(C)CN(C2CCCC2)C(=O)C1Oc1ccc(C#N)c(C(F)(F)F)c1 (centres unmarked) : ____ 6.77

Then what about the compound CC1(C)CN(Cc2nnc(-c3ccc(F)cc3)o2)C(=O)C1Oc1ccc(C#N)c(C(F)(F)F)c1 (centres unmarked) ? 6.69

Then what about the compound CC1(C)CN(Cc2nc(-c3ccncc3)no2)C(=O)C1Oc1ccc(C#N)c(C(F)(F)F)c1 (centres unmarked) ? 6.67

Then what about the compound Cc1ccc(-c2nnc(CN3CC(C)(C)C(Oc4ccc(C#N)c(C(F)(F)F)c4)C3=O)o2)cc1 (centres unmarked) ? 7.00

Then what about the compound CCCC(=O)N1CC(C)(C)C(Oc2ccc(C#N)c(C(F)(F)F)c2)C1=O (centres unmarked) [Example 102] ? 6.38

Then what about the compound CCN1CC(C)(C)C(Oc2ccc(C#N)c(C(F)(F)F)c2)C1=O (centres unmarked) ? 6.39

Then what about the compound CC1(C)CN(Cc2ccc(-n3cccn3)cc2)C(=O)C1Oc1ccc(C#N)c(C(F)(F)F)c1 (centres unmarked) ? 6.94

Then what about the compound CC1(C)CN(Cc2nnc(-c3cccc(Cl)c3)o2)C(=O)C1Oc1ccc(C#N)c(C(F)(F)F)c1 (centres unmarked) ? 6.46

Then what about the compound Cc1csc(S(=O)(=O)N2CC(C)(C)C(Oc3ccc(C#N)c(C(F)(F)F)c3)C2=O)c1 (centres unmarked) ? 6.85

Then what about the compound CC1(C)CN(Cc2ccc(SC(F)(F)F)cc2)C(=O)C1Oc1ccc(C#N)c(C(F)(F)F)c1 (centres unmarked) ? 6.32

Then what about the compound C[C@@H](c1ccc(F)cc1)N1CC(C)(C)[C@@H](Oc2ccc(C#N)c(C(F)(F)F)c2)C1=O (racemic) ? 6.98

Then what about the compound CCCCS(=O)(=O)N1CC(C)(C)C(Oc2ccc(C#N)c(C(F)(F)F)c2)C1=O (centres unmarked) ? 6.51

Then what about the compound Cc1ccc(S(=O)(=O)N2CC(C)(C)C(Oc3ccc(C#N)c(C(F)(F)F)c3)C2=O)s1 (centres unmarked) ? 6.63

Then what about the compound CC1(C)CN(CC2CCCCC2)C(=O)C1Oc1ccc(C#N)c(C(F)(F)F)c1 (centres unmarked) ? 6.53

Then what about the compound CC(C)S(=O)(=O)N1CC(C)(C)C(Oc2ccc(C#N)c(C(F)(F)F)c2)C1=O (centres unmarked) ? 6.52

Then what about the compound CC(c1ccccc1)N1CC(C)(C)C(Oc2ccc(C#N)cc2Cl)C1=O (centres unmarked) ? 6.69

Then what about the compound COC(=O)c1ccc(S(=O)(=O)N2CC(C)(C)C(Oc3ccc(C#N)c(C(F)(F)F)c3)C2=O)o1 (centres unmarked) [Example 100A] ? 6.62

Then what about the compound CSCN1CC(C)(C)C(Oc2ccc(C#N)c(C(F)(F)F)c2)C1=O (centres unmarked) [Example 68] ? 6.88

Then what about the compound CC1(C)CN(C2CCC2)C(=O)C1Oc1ccc(C#N)c(C(F)(F)F)c1 (centres unmarked) [Example 100F] ? 6.61

Then what about the compound CC1(C)CN(Cc2cccc(C(=O)O)c2)C(=O)C1Oc1ccc(C#N)c(C(F)(F)F)c1 (centres unmarked) ? 6.46

Then what about the compound CC1(C)CN(Cc2nnc(-c3cccc(F)c3)o2)C(=O)C1Oc1ccc(C#N)c(C(F)(F)F)c1 (centres unmarked) ? 6.85

Then what about the compound CSCN1CC(C)(C)C(Oc2ccc(C#N)c(C(F)(F)F)c2)C1=O (centres unmarked) [Example 99] ? 6.95

Then what about the compound Cc1n[nH]c(C)c1S(=O)(=O)N1CC(C)(C)C(Oc2ccc(C#N)c(C(F)(F)F)c2)C1=O (centres unmarked) ? 6.61

Then what about the compound CC1(C)CN(Cc2nc(-c3ccc(C4SCCS4)cc3)no2)C(=O)C1Oc1ccc(C#N)c(C(F)(F)F)c1 (centres unmarked) ? 6.30

Then what about the compound CC1(C)CN(S(C)(=O)=O)C(=O)C1Oc1ccc(C#N)c(C(F)(F)F)c1 (centres unmarked) ? 6.86

Then what about the compound Cc1cc(S(=O)(=O)N2CC(C)(C)C(Oc3ccc(C#N)c(C(F)(F)F)c3)C2=O)c(C)s1 (centres unmarked) ? 6.48

Then what about the compound CC1(C)CN(CC2CC2)C(=O)C1Oc1ccc(C#N)c(C(F)(F)F)c1 (centres unmarked) ? 6.38

Then what about the compound CCC(CC)C(=O)N1CC(C)(C)C(Oc2ccc(C#N)c(C(F)(F)F)c2)C1=O (centres unmarked) [Example 100E] ? 6.43

Then what about the compound C[C@@H](c1ccccc1)N1CC(C)(C)C(Oc2ccc(C#N)c(C(F)(F)F)c2)C1=O (mixture of isomers) ? 6.59

Then what about the compound CC1(C)CN(Cc2ccc(S(C)(=O)=O)cc2)C(=O)C1Oc1ccc(C#N)c(C(F)(F)F)c1 (centres unmarked) ? 6.46

Then what about the compound COc1cccc(-c2nnc(CN3CC(C)(C)C(Oc4ccc(C#N)c(C(F)(F)F)c4)C3=O)o2)c1 (centres unmarked) ? 6.77

Then what about the compound CCS(=O)(=O)N1CC(C)(C)C(Oc2ccc(C#N)c(C(F)(F)F)c2)C1=O (centres unmarked) ? 6.99
